Origin of measurements: PubChem BioAssay AID1382

tested-system: Lysosomal acid glucosylceramidase (Homo sapiens) (UniProt P04062)
Sequence (P04062 whole entry, looked up): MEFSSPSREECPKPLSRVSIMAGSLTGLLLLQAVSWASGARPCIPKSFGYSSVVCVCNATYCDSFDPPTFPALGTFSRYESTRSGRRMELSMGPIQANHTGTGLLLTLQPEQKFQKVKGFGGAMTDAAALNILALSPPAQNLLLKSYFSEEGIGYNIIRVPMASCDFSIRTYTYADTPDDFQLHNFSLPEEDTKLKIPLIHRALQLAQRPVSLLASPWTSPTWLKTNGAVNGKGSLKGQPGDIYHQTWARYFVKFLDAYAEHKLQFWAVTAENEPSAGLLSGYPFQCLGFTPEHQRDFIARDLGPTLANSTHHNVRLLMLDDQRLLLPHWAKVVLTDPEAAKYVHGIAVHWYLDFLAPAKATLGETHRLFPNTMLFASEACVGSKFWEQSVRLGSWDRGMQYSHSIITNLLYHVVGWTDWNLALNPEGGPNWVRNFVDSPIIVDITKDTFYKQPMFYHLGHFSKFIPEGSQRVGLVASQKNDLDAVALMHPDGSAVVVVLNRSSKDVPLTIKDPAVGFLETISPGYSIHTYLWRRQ
test-summary: Confirmation Concentration-Response Assay for Glucocerebrosidase Inhibitors
experimental-parameters: purified GBA, resorufin glucoside fluorescence, 20 min; series mostly up to 63.5 µM
Results filed as inconclusive are left out. Active and inactive are the calls of the source.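 The calls were made as follows: active = inhibitors giving a complete concentration-response curve with high efficacy; inconclusive = inhibitors giving only a partial curve with partial efficacy; inactive = the rest.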
Your response should consist of one outcome taken from active, inactive

Worked examples, 3 compounds total:
In this assay, the call recorded for Cc1cc(N2CCOCC2)nc2ccc(NC(=O)C3CCC(C)CC3)cc12 (stereo not given) was what?
active

Record request — test call for Cc1cc(Nc2cccc(Cl)c2)nc2ccc(NC(=O)C3CCC(C)CC3)cc12 (stereo not given)
inactive

Please let me know the test result on file for CCCC1CCC(C(=O)Nc2ccc3nc(N4CCOCC4)cc(C)c3c2)CC1 (stereo not given) .
active

More entries:
// return assay outcome for Cc1cc(N2CCCCC2)nc2ccc(NC(=O)C3CCC(C)CC3)cc12 (stereo not given)
active

Can you look up the reported call for `O=C(Nc1nccs1)c1ccc(NS(=O)(=O)c2ccc(Cl)cc2)cc1` for me?
active
